test: label from the status in PepcDB records
readout-name: protein production

{"entry-sequence": "SAAPGPALCLFDVDGTLTAPRQKITKEMDDFLQKLRQKIKIGVVGGSDFEKVQEQLGNDVVEKYDYVFPENGLVAYKDGKLLCRQNIQSHLGEALIQDLINYCLSYIAKIKLPKKRGTFIEFRNGMLNVSPIGRSCSQEERIEFYELDKKENIRQKFVADLRKEFAGKGLTFSIGGQISFDVFPDGWDKRYCLRHVENDGYKTIYFFGDKTMPGGNDHEIFTDPRTMGYSVTAPEDTRRICELLFS", "reported-result": "not failed"}
{"entry-sequence": "EVPDLPEEPSETAEEVVTVALRCPNGRVLRRRFFKSWNSQVLLDWMMKVGYHKSLYRLSTSFPRRALEVEGGSSLEDIGITVDTVLNVEEKEQSSQ", "reported-result": "not failed"}

---

test: label from the status in PepcDB records

{"entry-sequence": "MLAMKLGIVGLGGWVTGAHIPALTDLGIKVDYCADIDEKRVKDLSQKTGCKGYLDYKEMLRNENPDLVLVAVPHSLHAIIALDAINNDANVYVEKPMATSFQEALTLVEASRKRNKILVVGHENRFNPAMLIAKKLIRGGEVGKIYHMRGFYIRQRGIPTSPTFIKKDLAKGGAVFDIGTHIIDLLLFLSDFPTPKSVTGKTYNAFSEDKTKFSAYPSPNLPNFKVEVEDFGSAFLKLGDEISAYVEVSWASYIKENKMEVVILGDNGGIHIDNGVLNFMRNIEDELFISSPLTQQKGSVYREVWRTVMESISKGFPEYPLCSAEQGAIGVAILESIYKSALEGREVKIDIPQWFLKQFQPRALEHHHHHH", "protein production": "failed"}
{"entry-sequence": "MPHAARSDAAALRAPAADDGAYGKPAIALHWIIALLIFAAFGLGLYMTDIPGFTPTKLKLYSYHKWAGITVLILAVLRVLWRLTHPAPAPVAGMPAWQQKAAEGAHIVLYLLILAVPLTGYLLSVAAGIKVVYLGLWELPMPFDKSDALKEIFQVAHEWLNWTMATIVVLHILAALKHHIVDSDGTLRRMLPFLR", "protein production": "failed"}

---

test: label from the status in PepcDB records
readout-name: protein production

{"entry-sequence": "AIDVSAKSAIIIDGASGRVLYAKDEHQKRRIASITKIMTAVLAIESGKMDQTVTVSANAVRTEGSAIYLTEGQKVKLKDLVYGLMLRSGNDAAVAIAEHVGGSLDGFVYMMNQKAEQLGMKNTRFQNPHGLDDHENHYSTAYDMAILTKYAMKLKDYQKISGTKIYKAETMESVWKNKNKLLTMLYPYSTGGKTGYTKLAKRTLVSTASKDGIDLIAVTINDPNDWDDHMKMFNYVFEHYQTYLIAKKGDIPKLKGTFYESKAFIKRDITYLLTEEEKENVKINTTLLKPKKAWEKDASKIPDIVGHMEIMFNDATIAKVPIYYENERHQK", "readout-name": "protein production", "reported-result": "not failed"}
{"entry-sequence": "VYPLELTLEEIFHGCLKKVAHKRKVLLFSGEYVEEERQLTVDVKPGLPTGTRFVFEGEGNKTPKKEPGPVVFVLKPKPHPRFVRRGSDLVHKVTLPLHHALIGTTLDIRTLDDRDLKVPISDIMRPGSSLTVPGEGMPLPATPSARGNLVIEIDLLFPTHLTETQKMLLRSAF", "readout-name": "protein production", "reported-result": "not failed"}
{"entry-sequence": "MTMLLSIIVPTFKPQKTYFEECLFSLFNQTMFHYLYEVIVVLNGDIDTQYTDMILDIFAYKPAGLYCRLIKTDQAGVSNARNLGIDAAKGQYIGFVDDDDIVSSDYLEELCKISSRNIVGVSNVHTFRKTIEEKEDNFFACRIIQQRECQYSLFRNRAILAFPVAKLIHRDIIGNRRFNPRFKNGEDALFMTEISDLIGGFRFTKEYTTYYVRERAGSASRRPLKRGQLCWDTFMLIKAYVSIYLSSPFSYNFLLFASRIPGSIKGAIKLSRNTAFFLEHHHHHH", "readout-name": "protein production", "reported-result": "failed"}
{"entry-sequence": "VGSVLEIKDPENLKNLGSLIGEEIAKLHQALNSVNSNNELVKRELYKLVYEWALPNLEKNEHVDQDVVRTMNQIHSDFKKTITSLRKQIIHRDMHLSNVIFKDNEFQGFIDFELLERNVRVFDLCYCCTSILSELHSDEELRGKWQHIISKIFEGYNKQSILTREELQAIWYVMLSIQVIFITYFVQLPDLLKLNEEMFF", "readout-name": "protein production", "reported-result": "failed"}
{"entry-sequence": "MSSKQWRWIPNALTFLRMVLIVPFAGALLEGNYRLSLVIFFVAALTDAFDGFLARHFNWRSRLGAVADPLADKALLISAYLMLTITGVLPLWLFALVLGRDLVIVCGGLAFHYGIGRFDMEPSIPGKINTFVQILVALAIIILLAGLPMQPWVIDTGIWLVAVSALVSGGHYVAVWSLRAWRAKRS", "readout-name": "protein production", "reported-result": "failed"}
{"entry-sequence": "MNIILLSGKKSEAQPGDGEYPEYLCEYNGKPLIHTLIDNCAALEPRRIICTFSNDDVIGLHLRNMVQQMHPSASVLPVHNITQGAACTALLASGQIDNDDELLILSVSDFLDIELREVLRVFREANEDAGVVIFNSLHPRYSFARLDSDQRVIEAAEKNPISPHAIAGMYWFKSGSLFVSAAKEMIRKDARVNDHFYIAPALNELVLLHKKIGAYRIEPRQYRPLKTQNQLHAFEMADIR", "readout-name": "protein production", "reported-result": "failed"}
